Source listed as paper PMC5540273.

tested on: CSNK1G2; settings: concentration: 1 μM, replicates: in singlicate; n = 1;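 further: KINOMEscan kinase panel screen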
Listed compounds paired with reported %Inh
Endpoint label: %Inh (%)

INSERT INTO assay_data (smiles_representation, measured_on, endpoint_label, data_value) VALUES
  ('Fc1ccc(-c2ncn(C3CCNCC3)c2-c2ccnc(Oc3ccc(-c4ccccc4)cc3)n2)cc1', 'CSNK1G2', '%Inh', 78),
  ('Cc1cccc(NC(=O)Nc2ccc(Oc3ncnc4ccn(C)c34)cc2)c1', 'CSNK1G2', '%Inh', 10),
  ('CC(C)(C)c1ccc2nccc(Nc3cccc(O)c3)c2c1', 'CSNK1G2', '%Inh', 0),
  ('O=C(Nc1ccccc1F)NC1CCN(c2ccnc(Nc3ccc(F)cc3)n2)CC1', 'CSNK1G2', '%Inh', 0),
  ('O=C(Nc1cccc(-c2nn3ccccc3c2-c2ccnc(Nc3cccc(C(F)(F)F)c3)n2)c1)c1c(F)cccc1F', 'CSNK1G2', '%Inh', 0),
  ('O=C(Nc1n[nH]c2cc(-c3ccoc3)ccc12)C1CC1', 'CSNK1G2', '%Inh', 0),
  ('Cc1ccc(S(=O)(=O)Nc2ccc(Nc3nccc(Nc4cccc5[nH]ncc45)n3)cc2)cc1', 'CSNK1G2', '%Inh', 0),
  ('COc1ccc(-c2coc3ccc(-c4nnc(SCc5ccc(OC)c(C(F)(F)F)c5)o4)cc23)cc1', 'CSNK1G2', '%Inh', 24),
  ('c1ccc(-c2cnc3nccnn23)cc1', 'CSNK1G2', '%Inh', 5);
